Target: ERK2 enzyme (Homo sapiens (Human))
Sequence (P28482 whole entry): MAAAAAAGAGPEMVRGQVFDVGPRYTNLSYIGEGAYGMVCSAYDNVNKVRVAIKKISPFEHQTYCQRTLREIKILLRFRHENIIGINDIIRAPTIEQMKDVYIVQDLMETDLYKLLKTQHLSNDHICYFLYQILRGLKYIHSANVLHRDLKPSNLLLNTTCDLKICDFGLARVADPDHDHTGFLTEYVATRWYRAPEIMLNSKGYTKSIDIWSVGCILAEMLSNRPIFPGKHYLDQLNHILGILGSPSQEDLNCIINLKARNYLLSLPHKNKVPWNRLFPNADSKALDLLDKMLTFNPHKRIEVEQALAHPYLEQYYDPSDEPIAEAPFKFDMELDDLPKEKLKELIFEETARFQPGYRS
Assay: Inhibition assay of ERK (Z'-LYTE kinase assay, Ser/Thr 3 peptide substrate)
Type: biochemical
Details: In vitro ERK2 enzyme, 100 μM ATP
pIC50: −log10 of the molar value.
REPORTED_ENDPOINT: pIC50

{"COMPOUND": "Cc1cc(-c2n[nH]c3cc4c(cc23)CN([C@@H]2CCCN(Cc3cccnc3C(F)(F)F)C2)C(=O)N4)ccn1", "REPORTED_ENDPOINT": "pIC50", "REPORTED_VALUE": "> 7.30"}
{"COMPOUND": "COc1ncc(-c2n[nH]c3cc4c(cc23)CN([C@@H]2CCCN(Cc3ccccc3)C2)C(=O)N4)cn1", "REPORTED_ENDPOINT": "pIC50", "REPORTED_VALUE": "> 7.30"}
{"COMPOUND": "Cc1cc(-c2n[nH]c3cc4c(cc23)CN([C@@H]2CCCN(Cc3ncccc3C)C2)C(=O)N4)ccn1", "REPORTED_ENDPOINT": "pIC50", "REPORTED_VALUE": "> 7.30"}
{"COMPOUND": "Cc1cc(-c2n[nH]c3cc4c(cc23)CN(C2CN(CCC3CC3)C2)C(=O)N4)ccn1", "REPORTED_ENDPOINT": "pIC50", "REPORTED_VALUE": "6.60 to 7.30"}
{"COMPOUND": "Cc1cc(-c2n[nH]c3cc4c(cc23)CN([C@@H]2CCCN(C(C)c3ccc(F)cc3)C2)C(=O)N4)ccn1 (stereo partly drawn)", "REPORTED_ENDPOINT": "pIC50", "REPORTED_VALUE": "6.60 to 7.30"}
{"COMPOUND": "Cc1cc(-c2n[nH]c3cc4c(cc23)CN([C@H](C)c2cccc(Cl)c2)C(=O)N4)ccn1", "REPORTED_ENDPOINT": "pIC50", "REPORTED_VALUE": "> 7.30"}
{"COMPOUND": "COc1ncc(-c2n[nH]c3cc4c(cc23)CN([C@H](C)c2cccc(Cl)c2)C(=O)N4)cn1", "REPORTED_ENDPOINT": "pIC50", "REPORTED_VALUE": "> 7.30"}
{"COMPOUND": "Cc1cc(-c2n[nH]c3cc4c(cc23)CN(C2CCN(CC3CC3)CC2)C(=O)N4)ccn1", "REPORTED_ENDPOINT": "pIC50", "REPORTED_VALUE": "6.60 to 7.30"}
{"COMPOUND": "Cc1cc(-c2n[nH]c3cc4c(cc23)CN([C@@H](C)c2cccc(Cl)c2)C(=O)N4)ccn1", "REPORTED_ENDPOINT": "pIC50", "REPORTED_VALUE": "6.60 to 7.30"}
{"COMPOUND": "COc1ncc(-c2n[nH]c3cc4c(cc23)CN(Cc2ccc(F)cc2)C(=O)N4)cn1", "REPORTED_ENDPOINT": "pIC50", "REPORTED_VALUE": "> 7.30"}
{"COMPOUND": "Cc1cc(-c2n[nH]c3cc4c(cc23)CN([C@@H]2CCCN(Cc3ccccc3)C2)C(=O)N4)ccn1", "REPORTED_ENDPOINT": "pIC50", "REPORTED_VALUE": "> 7.30"}
{"COMPOUND": "Cc1cc(-c2n[nH]c3cc4c(cc23)CN([C@@H]2CCCN(Cc3cncnc3)C2)C(=O)N4)ccn1", "REPORTED_ENDPOINT": "pIC50", "REPORTED_VALUE": "> 7.30"}
{"COMPOUND": "Cc1cc(-c2n[nH]c3cc4c(cc23)CN([C@@H]2CCCN(Cc3ccc(Cl)cc3)C2)C(=O)N4)ccn1", "REPORTED_ENDPOINT": "pIC50", "REPORTED_VALUE": "> 7.30"}
{"COMPOUND": "COc1ncc(-c2n[nH]c3cc4[nH]c(=O)c(C(C)c5cccc(Cl)c5)cc4cc23)cn1 (stereo not drawn)", "REPORTED_ENDPOINT": "pIC50", "REPORTED_VALUE": "6.60 to 7.30"}
{"COMPOUND": "COc1ccc(CN2Cc3cc4c(-c5ccnc(C)c5)n[nH]c4cc3NC2=O)cc1", "REPORTED_ENDPOINT": "pIC50", "REPORTED_VALUE": "> 7.30"}
